# Test system: Escherichia coli TOP10
# procedure-details: shrunken log2 fold change of peptide-encoding DNA abundance (4.5 h post-induction vs induction); higher = less antimicrobial activity (less host growth inhibition)
# recorded-conditions: time post-induction: 4.5 h; library: site-saturation at positions 5, 18, 19, 20
Decide using shrunken log2 fold change: a value greater than or equal to -0.06 is Criterion met, a smaller one is Criterion not met.

RRIRTRPPRLPRPRPRPLFHPRP	Criterion not met
RRIRYRPPRLPRPRPRPGESPRP	Criterion met
RRIRQRPPRLPRPRPRPRCGPRP	Criterion met
RRIRVRPPRLPRPRPRPRAIPRP	Criterion met
RRIRNRPPRLPRPRPRPNSGPRP	Criterion not met
RRIRTRPPRLPRPRPRPWDHPRP	Criterion not met

Q: Is it the case that RRIRERPPRLPRPRPRPNSHPRP has shrunken log2 fold change reaching or exceeding -0.06?
A: Criterion not met

Q: Is it the case that RRIRFRPPRLPRPRPRPFLAPRP has shrunken log2 fold change reaching or exceeding -0.06?
A: Criterion not met

Q: Is it the case that RRIRARPPRLPRPRPRPKQTPRP has shrunken log2 fold change reaching or exceeding -0.06?
A: Criterion met

Q: Is it the case that RRIRIRPPRLPRPRPRPLRSPRP has shrunken log2 fold change reaching or exceeding -0.06?
A: Criterion met

Q: Is it the case that RRIRQRPPRLPRPRPRPYQFPRP has shrunken log2 fold change reaching or exceeding -0.06?
A: Criterion not met

====

# System: Escherichia coli TOP10
# procedure-details: shrunken log2 fold change of peptide-encoding DNA abundance (4.5 h post-induction vs induction); higher = less antimicrobial activity (less host growth inhibition)
# recorded-conditions: time post-induction: 4.5 h; library: site-saturation at positions 5, 18, 19, 20
measurement-name: shrunken log2 fold change
I only need the number, thanks.

RRIRWRPPRLPRPRPRPIDSPRP	-0.0713
RRIRDRPPRLPRPRPRPVKAPRP	0.026
RRIRVRPPRLPRPRPRPYKEPRP	0.0231
RRIRIRPPRLPRPRPRPQSKPRP	-0.493
RRIRWRPPRLPRPRPRPCGWPRP	0.314
RRIRLRPPRLPRPRPRPKYGPRP	-0.364
RRIRCRPPRLPRPRPRPIFVPRP	-0.284

Here is another sequence to look at.
Q: Suppose we examine the sequence RRIRLRPPRLPRPRPRPEQGPRP ; what shrunken log2 fold change value has been reported?
A: 1.07

====

# Test system: Escherichia coli TOP10
# procedure-details: shrunken log2 fold change of peptide-encoding DNA abundance (4.5 h post-induction vs induction); higher = less antimicrobial activity (less host growth inhibition)
# recorded-conditions: time post-induction: 4.5 h; library: site-saturation at positions 5, 18, 19, 20
measurement-name: shrunken log2 fold change

Take a look at these entries with their results.
RRIRRRPPRLPRPRPRPHPVPRP	0.175
RRIRNRPPRLPRPRPRPNTNPRP	-0.59

Q: Suppose we examine the sequence RRIRDRPPRLPRPRPRPHRWPRP ; what shrunken log2 fold change value has been reported?
A: 0.00819

Q: Suppose we examine the sequence RRIRPRPPRLPRPRPRPKAYPRP ; what shrunken log2 fold change value has been reported?
A: -0.029

====

# Tested on: Escherichia coli TOP10;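 further: peptides expressed intracellularly from a pBAD plasmid library in pooled LB shake-flask culture, induced with 0.3% L-arabinose, DNA abundance read by NGS, three biological replicates, DESeq2 with apeglm shrinkage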
# procedure-details: shrunken log2 fold change of peptide-encoding DNA abundance (4.5 h post-induction vs induction); higher = less antimicrobial activity (less host growth inhibition)
# recorded-conditions: time post-induction: 4.5 h; library: site-saturation at positions 5, 18, 19, 20
Catalogue of sequences with associated shrunken log2 fold change

Take a look at these entries with their results.
RRIRRRPPRLPRPRPRPDNSPRP	-0.078
RRIRARPPRLPRPRPRPICLPRP	0.425
RRIRGRPPRLPRPRPRPFAAPRP	1.82
RRIRERPPRLPRPRPRPAALPRP	-0.0784
RRIRWRPPRLPRPRPRPDECPRP	-0.012
RRIRDRPPRLPRPRPRPMPQPRP	0.0354

Q: Suppose we examine the sequence RRIRYRPPRLPRPRPRPYSRPRP ; what shrunken log2 fold change value has been reported?
A: -0.01

The origin of these recorded values is the supplement of paper PMC9112550.
